Target: CDK6/Cyclin D1 (Homo sapiens (Human), UniProt Q00534)
Sequence (Q00534 whole entry): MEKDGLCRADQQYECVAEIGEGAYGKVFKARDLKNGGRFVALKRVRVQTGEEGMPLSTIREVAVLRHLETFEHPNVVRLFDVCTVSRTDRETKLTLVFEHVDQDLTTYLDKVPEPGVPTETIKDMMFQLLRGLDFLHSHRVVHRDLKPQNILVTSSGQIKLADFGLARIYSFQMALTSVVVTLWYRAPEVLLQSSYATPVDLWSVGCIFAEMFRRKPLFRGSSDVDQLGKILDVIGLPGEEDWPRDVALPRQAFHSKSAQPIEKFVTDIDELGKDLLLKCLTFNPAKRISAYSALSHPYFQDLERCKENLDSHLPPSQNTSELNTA
Sequence (P24385 whole entry partner): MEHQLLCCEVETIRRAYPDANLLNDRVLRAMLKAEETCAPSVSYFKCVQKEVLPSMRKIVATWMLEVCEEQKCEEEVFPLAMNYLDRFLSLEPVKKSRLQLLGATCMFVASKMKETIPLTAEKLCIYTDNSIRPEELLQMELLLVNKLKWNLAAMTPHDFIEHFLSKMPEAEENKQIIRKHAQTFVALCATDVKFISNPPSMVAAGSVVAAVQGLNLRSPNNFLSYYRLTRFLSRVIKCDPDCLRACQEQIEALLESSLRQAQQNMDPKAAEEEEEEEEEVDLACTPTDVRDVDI
Assay: biochemical
pKi: −log10 of the molar value.
Observation type: pKi

Past entries and their recorded results:
In [3]: df
Out[3]:
                                   compound                         target_under_test  observation_type  endpoint_value
0  C[C@]1(O)CCC[C@@H]1n1c(=O)ccc2cnc(NC3CCN(S(=O)(=O)NC[C@@H]4CCCO4)CC3)nc21 (stereo in doubt) [Example 63]  CDK6/Cyclin D1 (Homo sapiens (Human), UniProt Q00534)               pKi            7.78
1  C[C@]1(O)CCC[C@@H]1n1c(=O)ccc2cnc(NC3CCN(S(=O)(=O)NC[C@H]4CCCO4)CC3)nc21 (stereo in doubt) [Example 65]  CDK6/Cyclin D1 (Homo sapiens (Human), UniProt Q00534)               pKi            7.59
2  Cc1cc2cnc(NC3CCN(S(=O)(=O)NC[C@@H]4CCCO4)CC3)nc2n([C@@H]2CCC[C@@]2(C)O)c1=O (stereo in doubt) [Example 100]  CDK6/Cyclin D1 (Homo sapiens (Human), UniProt Q00534)               pKi            8.97
3  C[C@@]1(O)CCC[C@H]1n1c(=O)ccc2cnc(NC3CCN(S(=O)(=O)NC[C@H]4CCCO4)CC3)nc21 (stereo in doubt) [Example 64]  CDK6/Cyclin D1 (Homo sapiens (Human), UniProt Q00534)               pKi            8.33

a. Cc1cc2cnc(NC3CCN(S(=O)(=O)NC[C@H]4CCCO4)CC3)nc2n([C@@H]2CCC[C@@]2(C)O)c1=O (stereo in doubt) [Example 102]
b. Cc1cc2cnc(NC3CCN(S(=O)(=O)NC[C@@H]4CCCO4)CC3)nc2n([C@H]2CCC[C@]2(C)O)c1=O (stereo in doubt) [Example 101]
c. C[C@@]1(O)CCC[C@H]1n1c(=O)ccc2cnc(NC3CCN(S(=O)(=O)NC[C@@H]4CCCO4)CC3)nc21 (stereo in doubt) [Example 62]
Input line: Let's sort these by pKi, smallest first. Go ahead? Reply format: the labels, ordered as requested.
Output line: b, c, a

---

Molecular target: CDK2/Cyclin E1 (Homo sapiens (Human))
Test: biochemical
Observation type: pKi
Would you please state pKi, meaning minus log10 of the concentration in mol/L, as a bare number?

Input line: Fetch value of pKi on CDK2/Cyclin E1 (Homo sapiens (Human)) for `CNS(=O)(=O)N1CCC(Nc2ncc3ccc(=O)n([C@@H]4CCC[C@H]4O)c3n2)CC1` .
Output line: 8.33

---

Molecular target: CDK6/Cyclin D1 (Homo sapiens (Human))
Conditions: read-out: CDK6_Ki; non-phosphorylated CDK6/Cyclin D1, 2 mM ATP
Observation type: Ki (nM)
Number only, in nM; omit the unit.

Input line: Provide measured Ki value, entry: C[C@@]1(O)CCC[C@H]1n1c(=O)ccc2cnc(NC3CCN(S(=O)(=O)C4CCS(=O)(=O)C4)CC3)nc21 (single isomer, unassigned)
Output line: 1.55

Where do the numbers come from? From patent US10800783B2.
